Source listed as patent US12077503B2.

Test system: lambsquarters (Chenopodium album)
Test: Test C preemergence
Assay type: in vivo
Details: 250 g ai/ha, scale 0 to 100, 0 no effect, 100 complete control
reported-endpoint: Plant response rating, Lambsquarters
Keep the answer to the number alone.

O=C1NCC(c2cccc(OC(F)(F)C(F)F)c2)C1C(=O)Nc1ccc(F)c(F)c1F (racemic) [Compound 698] tested on lambsquarters (Chenopodium album) gave Plant response rating, Lambsquarters: 80

Observed Plant response rating, Lambsquarters, lambsquarters (Chenopodium album), O=C1NCC(c2ccc3c(c2)OC(F)(F)O3)C1C(=O)Nc1cccc(F)c1F (stereo not shown) [Compound 635] : 85

Reported Plant response rating, Lambsquarters (lambsquarters (Chenopodium album)) for entry O=C1NCC(c2cccc(OC(F)(F)C(F)F)c2)C1C(=O)Nc1cccc(F)c1F (racemic) [Compound 697] is 60

O=C1NCC(c2cc(F)cc(C(F)(F)F)c2)C1C(=O)Nc1cccc(F)c1F (stereo not shown) [Compound 488] on lambsquarters (Chenopodium album) gives Plant response rating, Lambsquarters = 60
